- measured_target: ACC1 from rat liver (Rattus norvegicus, UniProt P11497)
- Construct: The livers (for ACC1 preparation) or skeletal muscle tissue (for ACC2 preparation) are removed; from tissue; host or cells: liver of male CD rats (fasted, then fed a high sucrose diet)
- method_description: Direct inhibition of ACC1 activity (14C-bicarbonate incorporation)
- Assay type: biochemical
- condition: ACC1 from rat liver
pIC50: −log10 of the molar value. Where a name gives a salt, the structure may show the parent alone.
measure_name: pIC50

Example cases with answers are listed next.
CC(C)Oc1ccc2c(c1)C(=O)CC1(CCN(C(=O)c3cc(Cl)c4[nH]ncc4c3)CC1)O2 [Ex. B2] | 7.79
COc1ccc2c(c1F)C(=O)CC1(CCN(C(=O)c3cc(Cl)c4[nH]ncc4c3)CC1)O2 [Ex. B11] | 6.66
Cc1cc2c(cc1C)C(=O)CC1(CCN(C(=O)c3ccc4c(c3)nc(N3CCCC3)n4C)CC1)O2 [Ex. L29] | 6.89
Cc1cc2c(cc1Cl)C(=O)CC1(CCN(C(=O)c3ccc4[nH]ccc4c3)CC1)O2 [Ex. L8] | 6.34
Cc1cc2c(cc1C)C(=O)CC1(CCN(C(=O)c3ccc4cc[nH]c4c3)CC1)O2 [Ex. L2, trifluoroacetic acid salt] | 6.81

A: COc1cccc2c1C(=O)CC1(CCN(C(=O)c3ccc4[nH]c5c(c4c3)CCCC5)CC1)O2 [Ex. L16]
B: Cc1cc2c(cc1C)C(=O)CC1(CCN(C(=O)c3ccc4nc[nH]c4c3)CC1)O2 [Ex. L22, trifluoroacetic acid salt]
Please tell me which of the two, A or B , has the higher reported pIC50 value. Return value: the label identifying the chosen record.
A
